Data origin, for the record: patent US20260209362A1

- TARGET: T1, biotinylated recombinant human IL-12Rβ2 (produced in-house) (human, UniProt Q99665 24-622, randomly biotinylated)
- T1 construct: also called hIL-12RB2; human IL-12RB2
- T1 sequence: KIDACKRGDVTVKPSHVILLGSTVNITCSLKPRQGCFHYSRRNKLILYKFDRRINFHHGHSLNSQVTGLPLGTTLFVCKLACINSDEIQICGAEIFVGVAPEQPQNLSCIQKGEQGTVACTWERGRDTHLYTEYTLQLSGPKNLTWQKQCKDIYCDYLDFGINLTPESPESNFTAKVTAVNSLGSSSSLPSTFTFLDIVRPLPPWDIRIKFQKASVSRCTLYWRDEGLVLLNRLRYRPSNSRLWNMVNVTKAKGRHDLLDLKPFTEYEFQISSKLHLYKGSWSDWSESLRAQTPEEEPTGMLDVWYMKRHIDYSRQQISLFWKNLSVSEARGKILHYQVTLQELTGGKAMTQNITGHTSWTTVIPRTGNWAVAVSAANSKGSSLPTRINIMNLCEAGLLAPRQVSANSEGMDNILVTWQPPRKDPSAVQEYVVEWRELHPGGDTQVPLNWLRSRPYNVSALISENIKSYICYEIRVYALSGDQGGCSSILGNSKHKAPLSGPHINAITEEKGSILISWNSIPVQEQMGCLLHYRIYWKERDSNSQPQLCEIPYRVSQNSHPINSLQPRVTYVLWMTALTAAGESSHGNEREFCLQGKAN
- ASSAY_REMARKS: ELISA, periplasmic extract on biotinylated human IL-12Rβ2; control streptavidin-coated blocked wells
Catalogue of binders with associated ELISA binding hIL-12RB2/control

- BINDER: "anti-IL-12Rβ2 VHH clone 2CRM16 (VHH, Tested as periplasmic extract; CDR3 group 18) VHH: QVQLQESGGGLVQAGGSLRLSCAASGRTFSNYRMGWFRQAPGKEREFVAGINWDGGHTYYTDSVKGRFTISRDNAKNTVYLQMNSLKPEDTAVYQCAVRVREYGSSRYEDQFDYWGQGTQVTVSS"
  ELISA binding hIL-12RB2/control: "0.947 ratio to control"
- BINDER: "anti-IL-12Rβ2 VHH clone 3CAM65 (VHH, Tested as periplasmic extract; CDR3 group 49; also called 20513) VHH: QVQLQESGGGLVQAGGSLRLSCAPSGRTFTTYVMGWFRQAPGKEREFVAHISWSGGRTYYADSVKGRFTISRDNAKNTSYLQMNSLKPEDTAVYYCAAARSDAVRIGYAEGYEYWGQGTQVTVSS"
  ELISA binding hIL-12RB2/control: "1.25 ratio to control"
- BINDER: "anti-IL-12Rβ2 VHH clone 2CAM9 (VHH, Tested as periplasmic extract; CDR3 group 19) VHH: QVQLQESGGGLVQAGMSLRLSCAASGLTFSWYRMGWFRQAPGKEREFVAGWYGVLTQYRDSVKGRFTISRDDAKNTVYLQMNSLKPEDTAVYYCAASLGGNYRSYEYDYWGQGTQVTVSS"
  ELISA binding hIL-12RB2/control: "1.09 ratio to control"

In: # lookup: ELISA binding hIL-12RB2/control of anti-IL-12Rβ2 VHH clone 3CAM1 (VHH, Tested as periplasmic extract; CDR3 group 48) VHH: QVQLQESGGGLVQAGGSLRLSCAASGRTFGSHRMGWFRQAPGQEREFVAAIAWRGGTQYYTDSVKGRFTISRDNANNTVYLQMNSLKPEDAAVYYCVAGEGSSWGDITDPRRYVFWGQGTQVTVSS
Out: 1.2 ratio to control
